- Test system: MOLT-4 leukemia
- Protocol: NCI tumour cell line growth inhibition, 48 h
Each entry below carries its recorded TGI.
Attribute Measured: TGI (µM)

[
  {
    "Compound": "COc1ccccc1-c1cc(=O)c2ccc(OC)c(OC)c2o1",
    "Attribute Measured": "TGI",
    "Unit Descriptor": "µM",
    "Result Operator": ">",
    "Measured Value": 100
  },
  {
    "Compound": "COc1ccc(/C=N/NC(=O)c2cnc3[nH]c(=O)n(C)c(=O)c3c2)cc1",
    "Attribute Measured": "TGI",
    "Unit Descriptor": "µM",
    "Result Operator": ">",
    "Measured Value": 100
  },
  {
    "Compound": "c1ccc(-c2cc(-c3cccs3)c(-c3cccs3)o2)cc1",
    "Attribute Measured": "TGI",
    "Unit Descriptor": "µM",
    "Result Operator": ">",
    "Measured Value": 100
  },
  {
    "Compound": "O=C(OCc1ccccc1)N1CCN(C(=O)OCc2ccccc2)CCN(C(=O)OCc2ccccc2)CCN(C(=O)OCc2ccccc2)CCN(C(=O)OCc2ccccc2)CC1",
    "Attribute Measured": "TGI",
    "Unit Descriptor": "µM",
    "Result Operator": ">",
    "Measured Value": 100
  },
  {
    "Compound": "COc1ccc(-c2csc(NC(=O)c3cc(O)c(O)c(O)c3)n2)cc1",
    "Attribute Measured": "TGI",
    "Unit Descriptor": "µM",
    "Result Operator": ">",
    "Measured Value": 33.3
  },
  {
    "Compound": "CCCCCCC(C)OC(=O)/C=C(\\CC(=O)OC(C)CCCCCC)C(=O)OC(C)CCCCCC (centres undefined)",
    "Attribute Measured": "TGI",
    "Unit Descriptor": "µM",
    "Result Operator": ">",
    "Measured Value": 100
  },
  {
    "Compound": "c1ccc(COC2(OCc3ccccc3)CC3OC2C2NN=NC32)cc1 (centres undefined)",
    "Attribute Measured": "TGI",
    "Unit Descriptor": "µM",
    "Result Operator": "=",
    "Measured Value": 37.9
  },
  {
    "Compound": "Cc1cccc(C)c1NC(=O)CCc1n[nH]c(=S)o1",
    "Attribute Measured": "TGI",
    "Unit Descriptor": "µM",
    "Result Operator": ">",
    "Measured Value": 100
  },
  {
    "Compound": "Cc1nc2ccccc2n1Cc1nnc(N)o1",
    "Attribute Measured": "TGI",
    "Unit Descriptor": "µM",
    "Result Operator": ">",
    "Measured Value": 100
  },
  {
    "Compound": "COc1cc(C2c3cc4c(cc3[C@@H](Nc3cccc([N+](=O)[O-])c3)C3COC(=O)[C@H]23)OCO4)cc(OC)c1O (some centres undefined)",
    "Attribute Measured": "TGI",
    "Unit Descriptor": "µM",
    "Result Operator": "=",
    "Measured Value": 3.37
  },
  {
    "Compound": "O=C(N/N=C\\c1ccccc1)Nc1cccc2ccccc12",
    "Attribute Measured": "TGI",
    "Unit Descriptor": "µM",
    "Result Operator": ">",
    "Measured Value": 100
  },
  {
    "Compound": "Clc1c(C(Cl)(Cl)Cl)nsc1N1CCCCC1",
    "Attribute Measured": "TGI",
    "Unit Descriptor": "µM",
    "Result Operator": "=",
    "Measured Value": 37.3
  },
  {
    "Compound": "O=C1ON=C2C3CC4CC12CC1(C3)C(=O)ON=C41",
    "Attribute Measured": "TGI",
    "Unit Descriptor": "µM",
    "Result Operator": ">",
    "Measured Value": 100
  },
  {
    "Compound": "O=C1C(NCCN2CCOCC2)=C(Cl)C(=O)c2ncccc21",
    "Attribute Measured": "TGI",
    "Unit Descriptor": "µM",
    "Result Operator": "=",
    "Measured Value": 5.69
  },
  {
    "Compound": "CCCN(CCSSCCNc1nc(N(C)O)nc(N(C)O)n1)c1nc(N(C)O)nc(N(C)O)n1",
    "Attribute Measured": "TGI",
    "Unit Descriptor": "µM",
    "Result Operator": ">",
    "Measured Value": 100
  },
  {
    "Compound": "CC(C)c1ccc(NC(=S)NC(=O)c2ccccc2)cc1",
    "Attribute Measured": "TGI",
    "Unit Descriptor": "µM",
    "Result Operator": "=",
    "Measured Value": 52.3
  },
  {
    "Compound": "CCOC(=O)Cn1c(=O)c2cc(-c3ccccc3)cc3c(Cl)nc4c(OC)c(OC)cc1c4c32",
    "Attribute Measured": "TGI",
    "Unit Descriptor": "µM",
    "Result Operator": "=",
    "Measured Value": 14.2
  },
  {
    "Compound": "CCN(CC)C(=O)N1CN(c2ccccc2)C2(CCN(CCCSc3ccc(F)cc3)CC2)C1=O",
    "Attribute Measured": "TGI",
    "Unit Descriptor": "µM",
    "Result Operator": "=",
    "Measured Value": 12.5
  },
  {
    "Compound": "COc1cc(OC)c(C(=O)/C=C/c2cccc(OC(C)=O)c2)cc1CC=C(C)C",
    "Attribute Measured": "TGI",
    "Unit Descriptor": "µM",
    "Result Operator": "=",
    "Measured Value": 43.6
  },
  {
    "Compound": "Cc1ccc(S(=O)(=O)NC(=O)NC(Cc2ccc(O)c(O)c2)C(=O)O)cc1 (centres undefined)",
    "Attribute Measured": "TGI",
    "Unit Descriptor": "µM",
    "Result Operator": ">",
    "Measured Value": 100
  },
  {
    "Compound": "O=C(COc1cccc(/C=C2\\CSc3ccccc3C2=O)c1)c1ccc(Cl)cc1",
    "Attribute Measured": "TGI",
    "Unit Descriptor": "µM",
    "Result Operator": "=",
    "Measured Value": 3.44
  },
  {
    "Compound": "O=C(NCc1ccncc1)C1COc2cc(-c3cc(=O)c4ccccc4o3)ccc2O1 (centres undefined)",
    "Attribute Measured": "TGI",
    "Unit Descriptor": "µM",
    "Result Operator": ">",
    "Measured Value": 100
  },
  {
    "Compound": "CC1CCc2sc3[nH]c(=S)n(-c4ccccc4)c(=O)c3c2C1 (centres undefined)",
    "Attribute Measured": "TGI",
    "Unit Descriptor": "µM",
    "Result Operator": ">",
    "Measured Value": 100
  },
  {
    "Compound": "Oc1ccc(C#CCOc2ccccc2)cc1CNCCN(Cc1ccccn1)Cc1ccccn1",
    "Attribute Measured": "TGI",
    "Unit Descriptor": "µM",
    "Result Operator": "=",
    "Measured Value": 5.56
  }
]
